Target: Replicative DNA helicase DnaB (Mycobacterium tuberculosis)
Sequence (P9WMR3 1-399, added parts left off): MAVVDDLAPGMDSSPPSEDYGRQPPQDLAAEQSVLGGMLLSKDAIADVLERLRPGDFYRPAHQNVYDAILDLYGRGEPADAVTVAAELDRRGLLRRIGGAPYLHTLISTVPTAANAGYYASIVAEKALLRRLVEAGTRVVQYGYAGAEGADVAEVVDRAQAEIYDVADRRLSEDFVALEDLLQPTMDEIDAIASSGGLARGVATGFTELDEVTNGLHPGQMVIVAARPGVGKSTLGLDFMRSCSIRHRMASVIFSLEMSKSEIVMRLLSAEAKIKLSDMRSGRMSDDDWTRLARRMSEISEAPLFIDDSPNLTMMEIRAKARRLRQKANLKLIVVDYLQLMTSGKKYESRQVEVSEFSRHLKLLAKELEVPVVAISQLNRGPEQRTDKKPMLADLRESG
Assay: DnaB intein splicing inhibitors, dose response, biochemical, cell-free fluorescence (AID 449749)
Assay type: functional
Activity calls are given as the source filed them.
measured_endpoint: AC50

mol_smiles: Cc1cccc(Cn2ncc(Cl)c(Cl)c2=O)c1
system_name: Replicative DNA helicase DnaB (Mycobacterium tuberculosis)
AC50: 27.5 µM (active)

mol_smiles: COc1cc(NCCCCCCCN)c2ncccc2c1
system_name: Replicative DNA helicase DnaB (Mycobacterium tuberculosis)
AC50: 2.12 µM (active)

mol_smiles: O=[N+]([O-])c1ccc(Sc2nnnn2-c2ccccc2)nc1
system_name: Replicative DNA helicase DnaB (Mycobacterium tuberculosis)
AC50: 14.5 µM (active)

API: value(readout=AC50, system=Replicative DNA helicase DnaB (Mycobacterium tuberculosis)) for record O=[N+]([O-])c1ccc2nc(Cl)nc(-c3ccccc3)c2c1
134 µM (active)

API: value(readout=AC50, system=Replicative DNA helicase DnaB (Mycobacterium tuberculosis)) for record COc1cc(/C=C(\C#N)C(=O)c2c[nH]c3ccccc23)cc(OC)c1O
1.26 µM (active)

API: value(readout=AC50, system=Replicative DNA helicase DnaB (Mycobacterium tuberculosis)) for record COc1ccc(/C=C2/C(=O)N(c3ccccc3)N=C2C)c(OC)c1
3.87 µM (active)

API: value(readout=AC50, system=Replicative DNA helicase DnaB (Mycobacterium tuberculosis)) for record CCOC(=O)c1c(NC(=O)/C=C/C(=O)O)sc(C)c1-c1ccc(C)c(C)c1
8.39 µM (active)

API: value(readout=AC50, system=Replicative DNA helicase DnaB (Mycobacterium tuberculosis)) for record COc1cc(/C=C2\C(=O)N(CCC#N)N=C2C)ccc1OCC(=O)Nc1ccccc1
3.74 µM (active)

---

Target: DNA dC->dU-editing enzyme APOBEC-3A (Homo sapiens, UniProt P31941)
Sequence (P31941 whole entry): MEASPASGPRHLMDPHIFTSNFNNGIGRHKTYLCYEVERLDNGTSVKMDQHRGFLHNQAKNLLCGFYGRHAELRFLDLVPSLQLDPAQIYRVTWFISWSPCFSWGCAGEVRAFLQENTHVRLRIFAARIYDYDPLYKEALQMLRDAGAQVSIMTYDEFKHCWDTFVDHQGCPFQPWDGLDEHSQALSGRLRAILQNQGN
Assay: SAR analysis of small molecule inhibitors of APOBEC3A DNA Deaminase via a fluorescence-based single-stranded DNA deaminase assay.
Format: functional
Conditions: read-out: IC50_Mean
The source made the active and inactive calls.
measured_endpoint: IC50

mol_smiles: C#CCSc1nnc(-c2cc3c(C(F)(F)F)nn(C)c3s2)n1C
system_name: DNA dC->dU-editing enzyme APOBEC-3A (Homo sapiens, UniProt P31941)
endpoint_value: > 99 µM (inactive)

Here is another molecule to look at.
IC50 lookup needed for O=C(c1nn2c(C(F)(F)F)cc(-c3ccc(Cl)cc3)nc2c1Cl)N1CCCC1 , thanks.
> 99 µM (inactive)

---

Molecular target: Ubiquitin-conjugating enzyme E2 N (Homo sapiens, UniProt P61088);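 further: Dose-response confirmation in a TR-FRET assay detecting UBC13-driven polyubiquitin chain formation, inhibition measured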
Sequence (P61088 whole entry): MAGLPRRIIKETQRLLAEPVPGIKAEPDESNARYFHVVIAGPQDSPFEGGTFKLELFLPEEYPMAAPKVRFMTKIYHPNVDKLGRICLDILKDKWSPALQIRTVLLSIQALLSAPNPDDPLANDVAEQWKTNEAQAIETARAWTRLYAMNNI
Assay type: functional
Activity calls are given as the source filed them.
Respond with a class label; see yes for active, no for inactive

molecule: CCN1CCN(CCNC(=O)c2ccc3c(c2)N(Cc2ccc(F)cc2)C(=O)/C(=C/c2ccccc2)S3)CC1
label_value: no
--
molecule: N=C(N)N/N=C/c1cn(-c2ccccc2)nc1-c1cccs1.O=[N+]([O-])O
label_value: no
--
molecule: Cc1cc2oc3cc(NCCC4CCCN4C)ccc3c(=O)c2cc1C (stereo not drawn)
label_value: no
--
molecule: O=C(CSCc1ccc([N+](=O)[O-])cc1)N[N-][C+]1CCCCCC1
label_value: yes
--
molecule: COc1cccc(CNc2nc(-c3cccnc3)nc3ccccc23)c1
label_value: no
--
molecule: COc1ccc(-c2cc3c(=O)n(CC(=O)NCCCN4CCC(Cc5ccccc5)CC4)ncn3n2)cc1
label_value: no
--
molecule: COc1ccc2sc(N(CCCN(C)C)C(=O)c3ccc(S(=O)(=O)N(C)Cc4ccccc4)cc3)nc2c1
label_value: no
--
molecule: COc1cccc(/C=N\NC(=O)c2sc(N)nc2C)c1OC
label_value: yes

Kindly consider the entry below.
What did the test return for NC(=O)NC(CC(=O)NNC(=O)c1ccccn1)c1ccc(Cl)cc1 (stereo not drawn) ?
yes
